system: PA-1; assay: Primary qHTS to identify gynecologic anti-cancer compounds using libraries of approved drugs and bioactive compounds (AID 1345084); conditions: Gynecologic cancer cell panel viability, ATPlite luminescence, 48 h; series mostly up to 57.5 µM; also: % is scaled to controls: 0 for no effect and ±100 for the full control effect; nearly all actives have a fitted effect of over 55% in size
Records with an inconclusive call do not appear. The source made the active and inactive calls. Calls follow the shape of the dose curve; as a rule, active = well fitted cell-killing curve with a large enough effect; inconclusive = small, poorly fitted or top-dose-only effect, or effect the other way; inactive = flat fitted curve, though single readings scatter.
OBSERVATION_TYPE: activity change, negative = cytotoxicity

COMPOUND	TESTED_TARGET	activity change, negative = cytotoxicity
COc1cc(C2Oc3c(O)cc(CCCO)cc3C2CO)ccc1O[C@H]1O[C@H](C)[C@@H](O)[C@H](O)[C@@H]1O (some centres undefined)	PA-1	inactive
COc1ncc(-c2ccc3c(Nc4cc(Oc5cc(F)cc(F)c5)cc(C(=O)O)c4)c(S(=O)(=O)NC4CC4)cnc3c2)c(OC)n1	PA-1	inactive
O=C1NC(=Nc2ccccc2F)S/C1=C\c1ccc(C(=O)O)cc1	PA-1	inactive
O=C(c1ccc(F)cc1)C1CCN(CCn2c(=O)nc3n(c2=O)CCCC3)CC1	PA-1	inactive
OC[C@H]1O[C@@H](Oc2cc(O)cc(-c3cc4ccc(O)cc4o3)c2)[C@H](O)[C@@H](O)[C@@H]1O	PA-1	inactive

`CC(C)C(=O)O[C@@H]1[C@@H](O)[C@@H](O[C@H]2O[C@H](CO)[C@@H](O)[C@H](O)[C@H]2O)O[C@H](CO)[C@H]1O` yielded activity change, negative = cytotoxicity of inactive

O=C(OCc1cccc(O)c1O[C@@H]1O[C@H](CO)[C@@H](O)[C@H](O)[C@H]1O)C1(O)C(=O)C2C=CC1C1C=CC(=O)C(O)(C(=O)OCc3cccc(O)c3O[C@@H]3O[C@H](CO)[C@@H](O)[C@H](O)[C@H]3O)C21 (some centres undefined) yielded activity change, negative = cytotoxicity of -3.46% [at 11.6 µM] (inactive)

`COc1ccc(C)c2sc(NC(=O)c3ccncc3)nc12` yielded activity change, negative = cytotoxicity of inactive

`CC1=C(CC(=O)O)c2cc(F)ccc2C1=Cc1ccc(S(C)(=O)=O)cc1` yielded activity change, negative = cytotoxicity of inactive

`C/C=C(\C)C(=O)O[C@H]1[C@@H](O[C@]2(COC(=O)CC(C)C)O[C@H](COC(=O)C(C)C)[C@@H](OC(C)=O)[C@@H]2O)O[C@H](COC(C)=O)[C@@H](O)[C@@H]1O` yielded activity change, negative = cytotoxicity of inactive

CC1OC(OC2C(O)C(C(=O)O)OC(OC3CCC4(C)C(CCC5(C)C4C=CC4=C6CC(C)(C)CC(O)C6(C)CCC45C)C3(C)C)C2OC2OCC(O)C(O)C2O)C(O)C(O)C1O (centres undefined) yielded activity change, negative = cytotoxicity of 8.55% [at 11.6 µM] (inactive)

`O=C(/C=C/c1ccc(O)cc1)OCC1=C[C@@H](O)[C@@H]2C=CO[C@@H](O[C@@H]3O[C@H](CO)[C@@H](O)[C@H](O)[C@H]3O)[C@H]12` yielded activity change, negative = cytotoxicity of inactive

C=C[C@@]1(C)CC(=O)C2[C@](C)(O1)[C@@H](OC(C)=O)[C@@H](O)[C@H]1C(C)(C)CCC[C@]21C (some centres undefined) yielded activity change, negative = cytotoxicity of 5.09% [at 11.6 µM] (inactive)

CC1(C)CC[C@]2(C(=O)O)CC[C@]3(C)C(=CCC4[C@@]5(C)C[C@@H](O)[C@H](O)C(C)(C)C5CC[C@]43C)[C@@H]2[C@@H]1O (some centres undefined) yielded activity change, negative = cytotoxicity of inactive
